System: RSV Long strain
Assay: Viral cytopathic effect (CPE) assay, RSV Long strain
Assay type: cell-based, Respiratory Syncytial Virus
Details: human respiratory syncytial virus, 144 h, cell viability after 6 days (Cell Counting kit-8)
pEC50: −log10 of the molar value.
pEC50 by entry:
measured_parameter: pEC50

{"compound": "CS(=O)(=O)CCCCn1c(CN2C(=O)C3(CC3)c3ccncc32)cc2nc(Cl)ccc21 [Example 4-5]", "val": 7.66}
{"compound": "CCS(=O)(=O)CCCn1c(CN2C(=O)C3(CC3)c3ccncc32)cc2cc(Cl)ccc21 [Example 22-1]", "val": 8.52}
{"compound": "O=C(O)CCn1c(CN2C(=O)C3(CC3)c3ccncc32)cc2cc(Cl)cc(F)c21 [Example 16-2]", "val": 6.52}
{"compound": "O=C1N(Cc2nc3cc(Cl)ccc3n2CCC2CS(=O)(=O)C2)c2cnccc2C12CC2 [Example 35]", "val": 8.96}
{"compound": "COc1ccc2c(c1)cc(CN1C(=O)C3(CC3)c3ccncc31)n2CCS(C)(=O)=O [Example 1-2]", "val": 7.13}
{"compound": "CS(=O)(=O)CCn1c(CN2C(=O)C3(CCCC3)c3ccncc32)cc2cc(Cl)ccc21 [Example 3-2]", "val": 6.54}
{"compound": "CS(=O)(=O)CCn1c(CN2C(=O)C3(CC3)c3ccncc32)cc2cc(Cl)ncc21 [Example 5-2]", "val": 6.57}
{"compound": "NCCn1c(CN2C(=O)C3(CC3)c3ccncc32)cc2cc(Cl)ccc21 [Example 24-5]", "val": 7.19}
{"compound": "CS(=O)(=O)CCn1c(CN2C(=O)C3(CC3)c3ccncc32)cc2cc(Cl)cc(F)c21 [Example 1-12]", "val": 8.47}
{"compound": "CS(=N)(=O)CCn1c(CN2C(=O)C3(CC3)c3ccncc32)cc2cc(Cl)cnc21 (stereo not shown) [Example 14-4]", "val": 6.76}
{"compound": "CS(=O)(=O)CCCn1c(CN2C(=O)C3(CC3)c3ccncc32)cc2cc(Cl)cnc21 [Example 4-3]", "val": 7.42}
{"compound": "O=C1N(Cc2cc3cc(Cl)ccc3n2CCCN2CC[C@@H](O)C2)c2cnccc2C12CC2 [Example 21]", "val": 6.26}
{"compound": "CS(=O)(=O)CCn1c(CN2C(=O)C3(CC3)c3ccncc32)cc2cc(C(F)(F)F)ccc21 [Example 1-10]", "val": 6.25}
{"compound": "CCS(=O)(=O)CCn1c(CN2C(=O)C3(CC3)c3ccncc32)nc2cc(Cl)ccc21 [Example 34-5]", "val": 7.89}
{"compound": "CN(Cc1ccccc1)S(=O)(=O)CCCn1c(CN2C(=O)C3(CC3)c3ccncc32)cc2cc(Cl)cnc21 [Example 4-8]", "val": 6.11}
{"compound": "NC1(Cn2c(CN3C(=O)C4(CC4)c4ccncc43)nc3cc(Cl)cc(F)c32)COC1 [Example 39-2]", "val": 6.64}

====

Test system: RSV Long strain
Test: Viral cytopathic effect (CPE) assay, RSV Long strain
Format: cell-based, Respiratory Syncytial Virus
Conditions: human respiratory syncytial virus, 144 h, cell viability after 6 days (Cell Counting kit-8)
pEC50: −log10 of the molar value.

{"molecule": "O=C1N(Cc2cc3nc(Cl)ccc3n2CCCS(=O)(=O)C2CC2)c2cnccc2C12CC2", "pEC50": 7.54}
{"molecule": "CS(=N)(=O)CCCCn1c(CN2C(=O)C3(CC3)c3ccncc32)cc2cc(Cl)cnc21 (stereo not drawn)", "pEC50": 7.13}
{"molecule": "CS(=O)(=O)CCn1c(CN2C(=O)C3(CC3)c3ccncc32)cc2cnccc21", "pEC50": 7.11}
{"molecule": "CN(C)S(=O)(=O)CCn1c(CN2C(=O)C3(CC3)c3ccncc32)cc2cc(Cl)ccc21", "pEC50": 7.64}
{"molecule": "CCS(=O)(=O)CCn1c(CN2C(=O)C3(CC3)c3cccnc32)cc2cc(Cl)ccc21", "pEC50": 6.61}
{"molecule": "CS(=O)(=O)CCn1c(CN2C(=O)C3(CC3)c3ccncc32)cc2nc(Cl)ccc21", "pEC50": 7.20}
{"molecule": "CS(=O)(=O)CCn1c(CN2C(=O)C3(CC3)c3ccncc32)nc2cc(Cl)cc(Cl)c21", "pEC50": 7.77}
{"molecule": "O=C1CN(S(=O)(=O)CCCn2c(CN3C(=O)C4(CC4)c4ccncc43)cc3cc(Cl)ccc32)CCN1", "pEC50": 8.15}
{"molecule": "CS(=O)(=O)CCCCn1c(CN2C(=O)C3(CC3)c3ccncc32)cc2cc(Cl)cnc21", "pEC50": 7.26}
{"molecule": "O=C1N(Cc2cc3cc(Cl)ccc3n2CCN2CCNCC2)c2cnccc2C12CC2", "pEC50": 7.17}
{"molecule": "CNS(=O)(=O)CCCn1c(CN2C(=O)C3(CC3)c3ccncc32)cc2cc(Cl)cnc21", "pEC50": 7.24}
{"molecule": "O=C1N(Cc2cc3cc(Cl)ccc3n2CCCS(=O)(=O)N2CCOCC2)c2cnccc2C12CC2", "pEC50": 7.85}
{"molecule": "CS(=O)(=O)CCn1c(CN2C(=O)C3(CC3)c3ccncc32)cc2cc(F)cc(F)c21", "pEC50": 7.62}
{"molecule": "CCc1ccc2c(c1)cc(CN1C(=O)C3(CC3)c3ccncc31)n2CCS(C)(=O)=O", "pEC50": 6.66}
{"molecule": "NC(=O)CCn1c(CN2C(=O)C3(CC3)c3ccncc32)cc2cc(Cl)ccc21", "pEC50": 7.77}
{"molecule": "O=C1CNCCN1CCCn1c(CN2C(=O)C3(CC3)c3ccncc32)cc2cc(Cl)ccc21", "pEC50": 7.52}
{"molecule": "O=C1N(Cc2cc3cc(Cl)ccc3n2CCCN2CCS(=O)(=O)CC2)c2cnccc2C12CC2", "pEC50": 6.10}
{"molecule": "CS(=N)(=O)CCn1c(CN2C(=O)C3(CC3)c3ccncc32)cc2cc(Cl)ccc21 (stereo not drawn)", "pEC50": 8.15}
{"molecule": "CS(=O)(=O)CCn1c(CN2C(=O)C3(CC3)c3ccncc32)cc2cc(Br)ccc21", "pEC50": 7.85}
{"molecule": "CCS(=O)(=O)CCn1c(CN2C(=O)C3(CC3)c3ccncc32)cc2nc(Cl)ccc21", "pEC50": 6.88}
{"molecule": "CS(=O)(=O)CCn1c(CN2C(=O)C3(CC3)c3c(Cl)cccc32)nc2cc(Cl)ccc21", "pEC50": 7.18}
{"molecule": "CS(=O)(=O)CCn1c(CN2C(=O)C3(CC3)c3c(F)cccc32)nc2cc(Cl)ccc21", "pEC50": 7.70}
{"molecule": "Cc1ccc2c(c1)cc(CN1C(=O)C3(CC3)c3ccncc31)n2CCS(C)(=O)=O", "pEC50": 8.05}
{"molecule": "CS(=O)(=O)CCCn1c(CN2C(=O)C3(CCC3)c3ccncc32)cc2cc(Cl)cnc21", "pEC50": 7.25}
